- STUDY_TARGET: Human PD-L1 expressed on cells (human, UniProt Q9NZQ7 19-290)
- Sequence (Q9NZQ7 19-290 limits assumed): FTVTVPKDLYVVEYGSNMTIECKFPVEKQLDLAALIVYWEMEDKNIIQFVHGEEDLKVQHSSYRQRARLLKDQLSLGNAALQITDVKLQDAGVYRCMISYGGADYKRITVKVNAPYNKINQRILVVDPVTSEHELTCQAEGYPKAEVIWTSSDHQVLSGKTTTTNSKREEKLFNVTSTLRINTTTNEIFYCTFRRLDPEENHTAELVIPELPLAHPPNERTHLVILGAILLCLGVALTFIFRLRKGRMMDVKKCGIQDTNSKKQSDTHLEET
- ASSAY_INFO: cell-based or functional assay
Classification field: enter Y for DO11.10 T cell activation assay EC50 values not below 0.3 nM, N for values below it.

See these solved cases before continuing.
[[record]]
binder = "Fcab FS17-33-334 with LALA mutation (designed binder) TCPPCPAPEAAGGPSVFLFPPKPKDTLMISRTPEVTCVVVDVSHEDPEVKFNWYVDGVEVHNAKTKPREEQYNSTYRVVSVLTVLHQDWLNGKEYKCKVSNKALPAPIEKTISKAKGQPREPQVYTLPPSRDESGYWVSLTCLVKGFYPSDIAVEWESNGEPQYWAKTTPPVLDSDGSFFLYSKLTVSNWRWQLDDFSCSVMHEALHNHYTQKSLSLSPGK"
label_class = "Y"

[[record]]
binder = "Fcab FS17-33-288 with LALA mutation (designed binder) TCPPCPAPEAAGGPSVFLFPPKPKDTLMISRTPEVTCVVVDVSHEDPEVKFNWYVDGVEVHNAKTKPREEQYNSTYRVVSVLTVLHQDWLNGKEYKCKVSNKALPAPIEKTISKAKGQPREPQVYTLPPSRDESGYWVSLTCLVKGFYPSDIVVEWESNGEPQYWAKTTPPVLDSDGSFFLYSKLTVSNWRWQIDDFSCSVMHEALHNHYTQKSLSLSPGK"
label_class = "N"

[[record]]
binder = "Fcab FS17-33-289 with LALA mutation (designed binder) TCPPCPAPEAAGGPSVFLFPPKPKDTLMISRTPEVTCVVVDVSHEDPEVKFNWYVDGVEVHNAKTKPREEQYNSTYRVVSVLTVLHQDWLNGKEYKCKVSNKALPAPIEKTISKAKGQPREPQVYTLPPSRDESGYWVSLTCLVKGFYPSDIVVEWESNGEPQYWAKTTPPVLDSDGSFFLYSKLTVSNWRWQLDDFSCSVMHEALHNHYTQKSLSLSPGK"
label_class = "N"

[[record]]
binder = "Fcab FS17-33-116 with LALA mutation (designed binder) TCPPCPAPEAAGGPSVFLFPPKPKDTLMISRTPEVTCVVVDVSHEDPEVKFNWYVDGVEVHNAKTKPREEQYNSTYRVVSVLTVLHQDWLNGKEYKCKVSNKALPAPIEKTISKAKGQPREPQVYTLPPSRDESGYWVSLTCLVKGFYPSDIVVEWESNGEPQYWAKTTPPVLDSDGSFFLYSKLTVSNWRWQMDDFSCSVMHEALHNHYTQKSLSLSPGK"
label_class = "N"


Data request: Exam item: decide whether the reported DO11.10 T cell activation assay EC50 for Fcab FS17-33-296 with LALA mutation (designed binder) TCPPCPAPEAAGGPSVFLFPPKPKDTLMISRTPEVTCVVVDVSHEDPEVKFNWYVDGVEVHNAKTKPREEQYNSTYRVVSVLTVLHQDWLNGKEYKCKVSNKALPAPIEKTISKAKGQPREPQVYTLPPSRDESGYWVSLTCLVKGFYPSDIVVEWESNGEPQYWAKTTPPVLDSDGSFFLYSKLTVSNWRWQVDDFSCSVMHEALHNHYTQKSLSLSPGK is at least 0.3 nM.
Data returned: N
